# assayMethodText: luminescence decrease from intact luciferase reporter – cell-based, single concentration, SaOS-2, counter-screen for Mdm2/MdmX interaction inhibitor project, confirmation (AID 504607);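 note: p53-null SaOS-2 cells with luciferase driven by a doxycycline-inducible promoter; compound on cells about two nights before reading with doxycycline added after day one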
# statedConditions: SaOS-2 full-length luciferase counterscreen, at 8 µM, hits give high values
The campaign covered roughly 6,200 compounds. About 4,800 (77%) were called active. So high a share suggests a set chosen from earlier hits. Only a sample is shown.
observedProperty: inhibition

molecule=Cc1ccccc1C(=O)N1CCN(c2ccc(NC(=O)c3cccs3)cc2)CC1 recordedvalue="65.1% (active)"
molecule="Cc1cc(NC(=O)/C=C/C(=O)N(c2ccccc2C)C(C(=O)NC2CCCC2)c2ccc(F)cc2)no1 (stereo not given)" recordedvalue="28.7% (inactive)"
molecule=CSc1nc(-c2ccccc2)nc(C(Cl)Cl)n1 recordedvalue="49.7% (active)"
molecule=CCN(CC)S(=O)(=O)c1ccc(NC(=O)c2cccnc2Cl)c(NC(=O)c2cccnc2Cl)c1 recordedvalue="43.5% (active)"
molecule=CCc1nc(C)cn1S(=O)(=O)c1cc([N+](=O)[O-])ccc1Cl recordedvalue="103% (active)"

These entries and their values trace back to PubChem BioAssay AID504607.
